Target: D2 receptor (Homo sapiens (Human), UniProt P14416)
Sequence (P14416 whole entry): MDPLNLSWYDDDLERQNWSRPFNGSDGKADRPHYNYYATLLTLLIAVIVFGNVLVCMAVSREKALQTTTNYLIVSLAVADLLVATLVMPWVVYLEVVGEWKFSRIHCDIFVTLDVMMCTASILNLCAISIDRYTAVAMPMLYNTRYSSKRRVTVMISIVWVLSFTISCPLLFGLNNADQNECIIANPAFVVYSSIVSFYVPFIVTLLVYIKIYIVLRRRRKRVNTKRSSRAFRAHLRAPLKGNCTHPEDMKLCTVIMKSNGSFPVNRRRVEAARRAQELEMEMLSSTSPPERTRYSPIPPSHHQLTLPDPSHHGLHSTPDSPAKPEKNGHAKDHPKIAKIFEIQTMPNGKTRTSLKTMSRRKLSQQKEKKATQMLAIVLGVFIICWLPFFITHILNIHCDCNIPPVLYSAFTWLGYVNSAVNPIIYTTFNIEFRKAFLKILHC
Test: Radioligand binding assay ([3H]-spiperone) on membranes of HEK293 EBNA cells expressing human D2 receptor
Settings: human receptor in HEK293 EBNA cells; 0.7 nM [3H]-spiperone
Measure: pKi
Lab note — pKi values are minus log10 of concentrations in M.

INPUT: Reported pKi for CC(C)CC(=O)N[C@H]1CC[C@H](CCN2CCC(c3cccc4c3OCO4)CC2)CC1 [Example 24] : what is it?
OUTPUT: 6.62

INPUT: Reported pKi for O=C(N[C@H]1CC[C@H](CCN2CCC(c3cccc4c3OCO4)CC2)CC1)C1CC1(F)F (stereo partly shown) [Example 26] : what is it?
OUTPUT: 6.71

INPUT: Reported pKi for CO[C@@H]1CC[C@@H](CC(=O)N[C@H]2CC[C@H](CCN3CCC(c4cccc5c4OCO5)CC3)CC2)C1 [Example 30] : what is it?
OUTPUT: 6.48

INPUT: Reported pKi for COC(=O)N[C@H]1CC[C@H](CCN2CCC(c3cccc4c3OCO4)CC2)CC1 [Example 18] : what is it?
OUTPUT: 6.88
